Reported binding signal values are given for each entry in this list.
Target: SALL4 ZFC4 G921D (HT-SELEX) (Mus musculus, UniProt Q8BX22 870-940, G921D)
Sequence: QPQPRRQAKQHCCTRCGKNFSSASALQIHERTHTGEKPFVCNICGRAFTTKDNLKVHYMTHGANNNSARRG
Assay: HT-SELEX; high values mean tight binding
Details: protein: recombinant; vector His6-GST; dsDNA, one strand shown
Endpoint name: binding signal (fold-change vs cycle 0)

[
  {
    "Monomer sequence": "GCCTAA",
    "Measurement units": "fold-change vs cycle 0",
    "Recorded measurement": 0.746
  },
  {
    "Monomer sequence": "CCGCCA",
    "Measurement units": "fold-change vs cycle 0",
    "Recorded measurement": 0.218
  },
  {
    "Monomer sequence": "CTTGTC",
    "Measurement units": "fold-change vs cycle 0",
    "Recorded measurement": 0.915
  },
  {
    "Monomer sequence": "AAAACG",
    "Measurement units": "fold-change vs cycle 0",
    "Recorded measurement": 0.972
  },
  {
    "Monomer sequence": "AGTAGA",
    "Measurement units": "fold-change vs cycle 0",
    "Recorded measurement": 1.41
  },
  {
    "Monomer sequence": "CTAGTC",
    "Measurement units": "fold-change vs cycle 0",
    "Recorded measurement": 0.941
  },
  {
    "Monomer sequence": "CAATAC",
    "Measurement units": "fold-change vs cycle 0",
    "Recorded measurement": 1.29
  },
  {
    "Monomer sequence": "GTGTAA",
    "Measurement units": "fold-change vs cycle 0",
    "Recorded measurement": 1.28
  },
  {
    "Monomer sequence": "AACATC",
    "Measurement units": "fold-change vs cycle 0",
    "Recorded measurement": 1.34
  },
  {
    "Monomer sequence": "GTCGTA",
    "Measurement units": "fold-change vs cycle 0",
    "Recorded measurement": 0.752
  },
  {
    "Monomer sequence": "ACAAGC",
    "Measurement units": "fold-change vs cycle 0",
    "Recorded measurement": 0.798
  },
  {
    "Monomer sequence": "ATCTCC",
    "Measurement units": "fold-change vs cycle 0",
    "Recorded measurement": 1.06
  },
  {
    "Monomer sequence": "ACCAAG",
    "Measurement units": "fold-change vs cycle 0",
    "Recorded measurement": 0.983
  },
  {
    "Monomer sequence": "AGAGAC",
    "Measurement units": "fold-change vs cycle 0",
    "Recorded measurement": 0.985
  },
  {
    "Monomer sequence": "ACGCAA",
    "Measurement units": "fold-change vs cycle 0",
    "Recorded measurement": 0.635
  },
  {
    "Monomer sequence": "ACTAAT",
    "Measurement units": "fold-change vs cycle 0",
    "Recorded measurement": 1.86
  },
  {
    "Monomer sequence": "CCAAAC",
    "Measurement units": "fold-change vs cycle 0",
    "Recorded measurement": 0.813
  },
  {
    "Monomer sequence": "ATATCC",
    "Measurement units": "fold-change vs cycle 0",
    "Recorded measurement": 1.37
  },
  {
    "Monomer sequence": "ATCCTC",
    "Measurement units": "fold-change vs cycle 0",
    "Recorded measurement": 1.09
  },
  {
    "Monomer sequence": "GCACGC",
    "Measurement units": "fold-change vs cycle 0",
    "Recorded measurement": 0.21
  },
  {
    "Monomer sequence": "AGCATC",
    "Measurement units": "fold-change vs cycle 0",
    "Recorded measurement": 0.887
  },
  {
    "Monomer sequence": "GTCTAA",
    "Measurement units": "fold-change vs cycle 0",
    "Recorded measurement": 1.27
  },
  {
    "Monomer sequence": "GGTAGA",
    "Measurement units": "fold-change vs cycle 0",
    "Recorded measurement": 0.892
  },
  {
    "Monomer sequence": "CTCCCC",
    "Measurement units": "fold-change vs cycle 0",
    "Recorded measurement": 0.456
  },
  {
    "Monomer sequence": "ACACCA",
    "Measurement units": "fold-change vs cycle 0",
    "Recorded measurement": 0.903
  },
  {
    "Monomer sequence": "AATTTA",
    "Measurement units": "fold-change vs cycle 0",
    "Recorded measurement": 2.04
  },
  {
    "Monomer sequence": "CGCCGC",
    "Measurement units": "fold-change vs cycle 0",
    "Recorded measurement": 0.091
  },
  {
    "Monomer sequence": "ACGTGC",
    "Measurement units": "fold-change vs cycle 0",
    "Recorded measurement": 0.439
  },
  {
    "Monomer sequence": "GCGTGA",
    "Measurement units": "fold-change vs cycle 0",
    "Recorded measurement": 0.455
  },
  {
    "Monomer sequence": "AATAAA",
    "Measurement units": "fold-change vs cycle 0",
    "Recorded measurement": 2.21
  },
  {
    "Monomer sequence": "GGTGTA",
    "Measurement units": "fold-change vs cycle 0",
    "Recorded measurement": 0.889
  },
  {
    "Monomer sequence": "CCTTGA",
    "Measurement units": "fold-change vs cycle 0",
    "Recorded measurement": 1.05
  },
  {
    "Monomer sequence": "TCTTAA",
    "Measurement units": "fold-change vs cycle 0",
    "Recorded measurement": 1.86
  },
  {
    "Monomer sequence": "ACGTCA",
    "Measurement units": "fold-change vs cycle 0",
    "Recorded measurement": 0.847
  },
  {
    "Monomer sequence": "AGGCCG",
    "Measurement units": "fold-change vs cycle 0",
    "Recorded measurement": 0.216
  },
  {
    "Monomer sequence": "ATGAAG",
    "Measurement units": "fold-change vs cycle 0",
    "Recorded measurement": 1.51
  },
  {
    "Monomer sequence": "GCTGAC",
    "Measurement units": "fold-change vs cycle 0",
    "Recorded measurement": 0.526
  },
  {
    "Monomer sequence": "TATATA",
    "Measurement units": "fold-change vs cycle 0",
    "Recorded measurement": 2.17
  },
  {
    "Monomer sequence": "ACTCCC",
    "Measurement units": "fold-change vs cycle 0",
    "Recorded measurement": 0.716
  },
  {
    "Monomer sequence": "AAGCTA",
    "Measurement units": "fold-change vs cycle 0",
    "Recorded measurement": 1.28
  },
  {
    "Monomer sequence": "CTTTCA",
    "Measurement units": "fold-change vs cycle 0",
    "Recorded measurement": 1.35
  },
  {
    "Monomer sequence": "ACTCCG",
    "Measurement units": "fold-change vs cycle 0",
    "Recorded measurement": 0.594
  },
  {
    "Monomer sequence": "GAGTAA",
    "Measurement units": "fold-change vs cycle 0",
    "Recorded measurement": 1.43
  },
  {
    "Monomer sequence": "CCCACG",
    "Measurement units": "fold-change vs cycle 0",
    "Recorded measurement": 0.319
  },
  {
    "Monomer sequence": "ATGGGA",
    "Measurement units": "fold-change vs cycle 0",
    "Recorded measurement": 0.966
  },
  {
    "Monomer sequence": "AAGGTC",
    "Measurement units": "fold-change vs cycle 0",
    "Recorded measurement": 0.943
  },
  {
    "Monomer sequence": "AAGTAG",
    "Measurement units": "fold-change vs cycle 0",
    "Recorded measurement": 1.39
  },
  {
    "Monomer sequence": "CTCATC",
    "Measurement units": "fold-change vs cycle 0",
    "Recorded measurement": 1.06
  },
  {
    "Monomer sequence": "AAAAAA",
    "Measurement units": "fold-change vs cycle 0",
    "Recorded measurement": 1.76
  }
]
